System: A498 renal
experimental-details: NCI-60 one-dose screen, 48 h (100 = growth as untreated, 0 = no growth, -100 = all killed)
run-parameters: 10 µM unless noted
The panel holds about 83,000 compounds, 20% with a hit somewhere; the sample as a whole holds those more often.
assay-endpoint: growth (%)
# value in %; strip the unit string

// growth lookup, key: CCO/C=N/C1=C(C#N)C(c2ccc(F)cc2)c2sc3c(C)cccc3c2O1 (stereo not given)
-0.888

Moving on to O=C(c1ccc(Cl)cc1)C1[C@H](c2ccc(Cl)cc2)[C@@H](c2ccccc2)NC12C(=O)Nc1ccccc12 (stereo not given in full)
74.3

Moving on to CCOC(=O)C(=O)CC(=O)N1C(=S)NC(=O)C1CC(C)C (stereo not given)
98.6

Moving on to CC[C@@H](CO)Nc1ccc2ncc(C#Cc3cncc(C(=O)Nc4ccc(CN5CCN(C)CC5)c(C(F)(F)F)c4)c3)n2n1
-98.8

Moving on to NC(N)=Nc1ccc(Oc2ccc(Nc3ccc(Cl)c(C(F)(F)F)c3)cc2)cc1
68.3

Moving on to COc1ccc(-c2nc(C(Cl)Cl)nc3cc(-c4ccccc4)nn23)cc1
-33.4

Moving on to COc1ccc([C@@H]2[C@@H](O)C(=O)N2c2cc(OC)c(OC)c(OC)c2)cc1F
-29.5

Moving on to N/C(=N\C(N)=N\c1nc2ccccc2s1)c1ccc2ccccc2c1
96.9

Moving on to N#Cc1cnc2ccc(-c3cnc4[nH]ncc4c3)cc2c1N1CCc2cc(F)c(Cl)cc21
-53.7

Moving on to Cc1ccc(NC(=S)NNC(=S)Nc2ccc(C)cc2)cc1
84.1
